Origin of measurements: the supplement of paper PMC10307832

Test system: NCI-H522
Assay: relative viability (nuclei count vs DMSO), 5 days (fraction); higher = more cells survive
Details: first compound 0.05 µM
Mark met only for relative viability values smaller than 0.8; exact matches and larger values are not met.

These recorded examples may help you get a feel for the data.
# compound, measured_on, class_label
measured = [
    ("COc1cc2nccc(Oc3ccc(NC(=O)Nc4cc(C)on4)c(Cl)c3)c2cc1OC [Tivozanib] + Nc1nc2[nH]cc(CCc3ccc(C(=O)N[C@@H](CCC(=O)O)C(=O)O)cc3)c2c(=O)[nH]1 [Pemetrexed] (partner 0.2 µM)", "NCI-H522", "not met"),
    ("Nc1ccn([C@@H]2O[C@H](CO)[C@@H](O)[C@@H]2O)c(=O)n1 [Cytarabine] + Nc1ncn([C@H]2C[C@H](O)[C@@H](CO)O2)c(=O)n1 [Decitabine] (partner 2 µM)", "NCI-H522", "met"),
]

Attention now shifts to the item below.
In plain terms, does COc1cc2nccc(Oc3ccc(NC(=O)Nc4cc(C)on4)c(Cl)c3)c2cc1OC [Tivozanib] + O=C(c1cc(Cc2n[nH]c(=O)c3ccccc23)ccc1F)N1CCN(C(=O)C2CC2)CC1 [Olaparib] (partner 8 µM) come in under 0.8 for relative viability?
met
